Measured Total Cell Count, listed per entry for reference.
- Tested on: HEK-293T
- Assay details: Multiplex assay against HEK293T
- Type: toxicity, cell-based
- Particulars: human, 24 h, 1 µM, compound concentration 1 uM, replicate 2

{"Molecule": "CCNC1(C(N)=O)CCN(c2ncnc3c2nc(-c2ccccc2Cl)n3-c2ccc(Cl)cc2)CC1", "Target or test system": "HEK-293T", "Total Cell Count": 442}
{"Molecule": "O=C1COc2nccc(-c3ccccc3F)c2CN1Cc1cc(C(F)(F)F)cc(C(F)(F)F)c1", "Target or test system": "HEK-293T", "Total Cell Count": 428}
{"Molecule": "COc1cc(C(=O)N(CCCc2ccccc2)Cc2ccc(CC(=O)O)cc2)cc(OC)c1C", "Target or test system": "HEK-293T", "Total Cell Count": 507}
{"Molecule": "Cc1ccc(C(C)(O)c2nc3ccccc3s2)c(C)c1 (stereo not drawn)", "Target or test system": "HEK-293T", "Total Cell Count": 447}
{"Molecule": "C[C@H](NC(=O)c1c(C(F)F)nn(C)c1Oc1cccc(C(F)(F)F)c1)c1ccc(C(=O)O)cc1", "Target or test system": "HEK-293T", "Total Cell Count": 604}
{"Molecule": "CN(C)CCCc1cc(C(=O)Nc2ccc(-c3ccncc3)cc2)ccc1O.Cl.Cl", "Target or test system": "HEK-293T", "Total Cell Count": 486}
{"Molecule": "Cc1ccc(/C(=C\\CN2CCCC2)c2ccccn2)cc1", "Target or test system": "HEK-293T", "Total Cell Count": 541}
{"Molecule": "COc1cc(NC(=O)CCN2CCC(OC(=O)Nc3ccccc3-c3ccccc3)CC2)c(Cl)cc1CNC[C@H](O)c1ccc(O)c2[nH]c(=O)ccc12", "Target or test system": "HEK-293T", "Total Cell Count": 403}
{"Molecule": "Cc1nc2ccc(Oc3ccc(F)cc3)cc2c(=O)n1C[C@H]1CCCN(C(C)C)C1.Cl", "Target or test system": "HEK-293T", "Total Cell Count": 281}
{"Molecule": "Cc1ccc(F)cc1C(=O)Nc1ccc(C(=O)N2Cc3cccn3Cc3ccccc32)c(Cl)c1", "Target or test system": "HEK-293T", "Total Cell Count": 423}
{"Molecule": "Cc1ccc(-c2ccc(F)cc2COc2ccc(CCC(=O)O)cc2)cc1", "Target or test system": "HEK-293T", "Total Cell Count": 445}
{"Molecule": "CN(C)c1ccnc2sc3c(=O)n(N4CCCCCC4)cnc3c12", "Target or test system": "HEK-293T", "Total Cell Count": 470}
{"Molecule": "CC(C)(C)c1ccc(S(=O)(=O)Nc2ccc(Cl)cc2C(=O)c2cc[n+]([O-])cc2)cc1", "Target or test system": "HEK-293T", "Total Cell Count": 521}
{"Molecule": "N[C@@]1(C(=O)O)CO[C@H]2[C@H](C(=O)O)[C@H]21", "Target or test system": "HEK-293T", "Total Cell Count": 481}
{"Molecule": "CCCC(CCC)C(=O)O", "Target or test system": "HEK-293T", "Total Cell Count": 469}
{"Molecule": "CSCC[C@H](NC=O)C(=O)N[C@@H](CC(C)C)C(=O)N[C@@H](Cc1ccccc1)C(=O)O", "Target or test system": "HEK-293T", "Total Cell Count": 550}
{"Molecule": "O=C(NCCO)c1cccc(-c2cc(Nc3ccc(OC(F)(F)F)cc3)ncn2)c1", "Target or test system": "HEK-293T", "Total Cell Count": 331}
{"Molecule": "CN1CCN(c2nc3cc(C(F)(F)F)ccc3n3cccc23)CC1.O=C(O)/C=C\\C(=O)O.O=C(O)/C=C\\C(=O)O", "Target or test system": "HEK-293T", "Total Cell Count": 390}
